The origin of these recorded values is ChEMBL document CHEMBL4831554.

- MEASUREMENT PROTOCOL: Apparent permeability of compound in human Caco-2 cells
- Assay type: ADME, cell-based
- CONDITION DETAILS: read-out: Papp
MEASURED METRIC: Papp (×10⁻⁶ cm/s)
API: value field is a number in ×10⁻⁶ cm/s; no unit string.

ITEM SMILES	Papp / ×10⁻⁶ cm/s
Cc1nc(C(=O)N(C)C)ccc1-c1cnc(NCc2c(F)ccc3c2CCO3)c2cn[nH]c(=O)c12	1.7

Moving on to another molecule below.
Prompt: What does the record list as Papp for CNC(=O)c1ccc(-c2cnc(NCc3c(F)ccc4c3CCO4)c3cn[nH]c(=O)c23)c(C)n1 ?
Completion: 54.1
